Overview of reported viability increase across a group of molecules:
test: doxorubicin toxicity protection in MRP-1 cells – H69AR cells, CellTiter-Glo, duplicate, MRP-1 activator project, pilot screen (AID 807); settings: H69AR viability with doxorubicin, CellTiter-Glo luminescence; at 10 µM; stronger effect = higher value;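 note: compound pretreatment 18-22 h then 72 h combined with doxorubicin; 0% = doxorubicin alone and 100% = vehicle without doxorubicin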
Record the value in %, omitting the unit from your answer.

# annotated cases, reported viability increase shown
{"MOLECULE": "Cn1c(=O)[nH]c(=O)c2c1nc(Sc1ccccc1)n2CCc1ccccc1", "viability increase [%]": -5.18}
{"MOLECULE": "COC(=O)c1ccc(/C=N/n2cnnc2)cc1", "viability increase [%]": -1.44}
{"MOLECULE": "COc1cccc(-c2cc(C(F)(F)F)nc(NCc3ccco3)n2)c1", "viability increase [%]": -3.81}
{"MOLECULE": "Cc1ccc(N(C(=O)c2ccncc2)C2C=CS(=O)(=O)C2)cc1 (stereo not given)", "viability increase [%]": 0.88}
{"MOLECULE": "C/C=C/CSc1nc2c(c(=O)[nH]c(=O)n2C)n1Cc1ccc(C)cc1", "viability increase [%]": -4.39}

Let's switch to this molecule now.
Value lookup for viability increase; key = COc1ccccc1C1NC(=O)NC(C)=C1C(=O)Nc1cccc(C)c1C (stereo not given)
-1.32
